Experimental Details: Water sorption isotherms using Dynamic Vapor Sorption (DVS)
Type: physicochemical
Test Parameters: DVS sorption step, target RH 30%, 25° C.
This listing pairs compounds with measured Change in Mass.
State the value with its unit after it.

O=C(O)c1ccc2c(c1)CCCC(c1ccc(Cl)cc1Cl)=C2c1ccc(O[C@H]2CCN(CCCF)C2)cc1 [anhydrate crystalline Form 1]    0.99%
O=C(O)c1ccc2c(c1)CCCC(c1ccc(Cl)cc1Cl)=C2c1ccc(O[C@H]2CCN(CCCF)C2)cc1 [anhydrate crystalline Form 2]    0.02%
O=C(O)c1ccc2c(c1)CCCC(c1ccc(Cl)cc1Cl)=C2c1ccc(O[C@H]2CCN(CCCF)C2)cc1 [anhydrate crystalline Form 3]    1.29%

Could you now look at the following compound, please?
# input Give its Change in Mass value. Item: O=C(O)c1ccc2c(c1)CCCC(c1ccc(Cl)cc1Cl)=C2c1ccc(O[C@H]2CCN(CCCF)C2)cc1 [anhydrate crystalline Form 4]
# output 0.34%

---

Experimental Details: Water sorption isotherms using Dynamic Vapor Sorption (DVS)
Type: physicochemical
Test Parameters: DVS sorption step, target RH 60%, 25° C.
Readout Kind: Change in Mass (%)
Respond with the bare value in %.

Example cases with answers are listed next.
O=C(O)c1ccc2c(c1)CCCC(c1ccc(Cl)cc1Cl)=C2c1ccc(O[C@H]2CCN(CCCF)C2)cc1 [anhydrate crystalline Form 1]    2.57
O=C(O)c1ccc2c(c1)CCCC(c1ccc(Cl)cc1Cl)=C2c1ccc(O[C@H]2CCN(CCCF)C2)cc1 [anhydrate crystalline Form 4]    0.58
O=C(O)c1ccc2c(c1)CCCC(c1ccc(Cl)cc1Cl)=C2c1ccc(O[C@H]2CCN(CCCF)C2)cc1 [anhydrate crystalline Form 3]    2.46

Note: attention shifts to another entry.
# input What does the data say about its Change in Mass? Entry: O=C(O)c1ccc2c(c1)CCCC(c1ccc(Cl)cc1Cl)=C2c1ccc(O[C@H]2CCN(CCCF)C2)cc1 [anhydrate crystalline Form 2]
# output 0.04

---

Experimental Details: Water sorption isotherms using Dynamic Vapor Sorption (DVS)
Assay type: physicochemical
Test Parameters: DVS sorption step, target RH 0%, 25° C.
Readings of Change in Mass for the listed molecules
The reply should contain only the number, in %.

These recorded examples may help you get a feel for the data.
O=C(O)c1ccc2c(c1)CCCC(c1ccc(Cl)cc1Cl)=C2c1ccc(O[C@H]2CCN(CCCF)C2)cc1 [anhydrate crystalline Form 4]    0.00
O=C(O)c1ccc2c(c1)CCCC(c1ccc(Cl)cc1Cl)=C2c1ccc(O[C@H]2CCN(CCCF)C2)cc1 [anhydrate crystalline Form 1]    0.00
O=C(O)c1ccc2c(c1)CCCC(c1ccc(Cl)cc1Cl)=C2c1ccc(O[C@H]2CCN(CCCF)C2)cc1 [anhydrate crystalline Form 2]    0

Shifting focus to the molecule that follows.
# input Which measured Change in Mass value corresponds to O=C(O)c1ccc2c(c1)CCCC(c1ccc(Cl)cc1Cl)=C2c1ccc(O[C@H]2CCN(CCCF)C2)cc1 [anhydrate crystalline Form 3] ?
# output 0.00

---

Experimental Details: Water sorption isotherms using Dynamic Vapor Sorption (DVS)
Assay type: physicochemical
Test Parameters: DVS sorption step, target RH 10%, 25° C.
Below, each entry is listed alongside its reported Change in Mass.
Write the answer as a number in %, unit excluded.

O=C(O)c1ccc2c(c1)CCCC(c1ccc(Cl)cc1Cl)=C2c1ccc(O[C@H]2CCN(CCCF)C2)cc1 [anhydrate crystalline Form 3]    0.78

# input I have this compound here, O=C(O)c1ccc2c(c1)CCCC(c1ccc(Cl)cc1Cl)=C2c1ccc(O[C@H]2CCN(CCCF)C2)cc1 [anhydrate crystalline Form 4] , and I need its recorded Change in Mass.
# output 0.07

# input Look at this compound and give its reported Change in Mass. O=C(O)c1ccc2c(c1)CCCC(c1ccc(Cl)cc1Cl)=C2c1ccc(O[C@H]2CCN(CCCF)C2)cc1 [anhydrate crystalline Form 1]
# output 0.20

# input If you can, please state the reported Change in Mass value of O=C(O)c1ccc2c(c1)CCCC(c1ccc(Cl)cc1Cl)=C2c1ccc(O[C@H]2CCN(CCCF)C2)cc1 [anhydrate crystalline Form 2] .
# output 0.01
